# target_system: Nuclear receptor coactivator 2 (Homo sapiens) (UniProt Q15596)
# Sequence (Q15596 whole entry, looked up): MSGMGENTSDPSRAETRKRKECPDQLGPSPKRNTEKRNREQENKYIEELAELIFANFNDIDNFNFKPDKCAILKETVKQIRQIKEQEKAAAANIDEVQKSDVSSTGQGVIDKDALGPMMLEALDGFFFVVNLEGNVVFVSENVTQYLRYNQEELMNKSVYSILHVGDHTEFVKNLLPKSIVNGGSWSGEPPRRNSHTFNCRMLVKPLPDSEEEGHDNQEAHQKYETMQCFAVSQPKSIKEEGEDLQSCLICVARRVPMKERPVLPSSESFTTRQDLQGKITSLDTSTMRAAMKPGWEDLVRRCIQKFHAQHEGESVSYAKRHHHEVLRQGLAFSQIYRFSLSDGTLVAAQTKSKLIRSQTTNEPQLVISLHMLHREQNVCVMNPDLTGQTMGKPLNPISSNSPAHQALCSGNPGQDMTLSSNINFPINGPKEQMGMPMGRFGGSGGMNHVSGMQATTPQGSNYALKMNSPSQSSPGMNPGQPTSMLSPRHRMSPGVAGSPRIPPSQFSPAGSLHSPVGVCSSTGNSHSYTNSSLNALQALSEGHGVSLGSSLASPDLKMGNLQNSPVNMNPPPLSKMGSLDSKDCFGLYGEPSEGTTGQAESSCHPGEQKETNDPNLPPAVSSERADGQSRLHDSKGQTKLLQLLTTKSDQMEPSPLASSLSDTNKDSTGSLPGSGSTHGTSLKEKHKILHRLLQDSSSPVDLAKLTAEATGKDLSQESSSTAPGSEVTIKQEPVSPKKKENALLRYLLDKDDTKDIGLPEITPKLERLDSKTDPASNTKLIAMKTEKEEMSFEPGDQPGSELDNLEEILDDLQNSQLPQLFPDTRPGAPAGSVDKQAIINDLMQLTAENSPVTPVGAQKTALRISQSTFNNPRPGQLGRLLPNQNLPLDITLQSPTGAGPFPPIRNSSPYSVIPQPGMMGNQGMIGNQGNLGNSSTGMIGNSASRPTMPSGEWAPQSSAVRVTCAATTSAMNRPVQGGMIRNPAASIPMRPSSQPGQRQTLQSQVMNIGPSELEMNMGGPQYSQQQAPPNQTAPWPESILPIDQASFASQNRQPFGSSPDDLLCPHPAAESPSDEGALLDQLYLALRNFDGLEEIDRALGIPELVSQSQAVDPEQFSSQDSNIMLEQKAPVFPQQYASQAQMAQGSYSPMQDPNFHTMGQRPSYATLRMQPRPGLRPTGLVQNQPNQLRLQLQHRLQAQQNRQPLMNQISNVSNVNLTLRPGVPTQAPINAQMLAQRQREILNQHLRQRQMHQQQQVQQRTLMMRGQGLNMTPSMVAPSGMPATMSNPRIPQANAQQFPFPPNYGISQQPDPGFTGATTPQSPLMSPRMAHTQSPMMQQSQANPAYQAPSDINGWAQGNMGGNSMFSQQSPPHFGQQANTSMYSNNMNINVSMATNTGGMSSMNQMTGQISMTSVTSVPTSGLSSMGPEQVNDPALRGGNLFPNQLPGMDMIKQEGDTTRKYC
# assay_notes: SRC2 coactivator transcriptional activity inhibitors, confirmation, cell-based, luminescence, HEK293, triplicate (AID 652008);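 further: 0% = DMSO-treated cells and 100% = Gossypol at 36 µM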
# conditions: HEK293 GAL4-SRC2 luciferase reporter, at 8.9 µM, hits give high values
Below, each entry is listed with its recorded inhibition.

# compound, unit_symbol, inhibition
data = [
    ("O[C@@H]1[C@@H](O)C=C2CCN3Cc4cc5c(cc4[C@H]1C23)OCO5 (stereo not given in full)", "%", -13.8),
    ("O=C(c1ccc(NS(=O)(=O)c2cccc(F)c2)cc1)N1CCCCC1", "%", -9),
    ("C=C1C(=O)[C@]23C[C@H]1CCC2[C@@]1(C)C(C[C@@H]3O)[C@](C)(C(=O)OC)CC[C@@H]1OC(C)=O (stereo not given in full)", "%", 99),
    ("O=C(CN1C(=O)c2ccccc2S1(=O)=O)c1ccc2c(c1)OCCO2", "%", 95.2),
    ("CN(C(=O)CCc1nnc(-c2ccc(-c3ccccc3)cc2)o1)C1CCOCC1", "%", 26.7),
    ("Cc1cc(NC2CCCC2)n2ncc(-c3ccccc3)c2n1", "%", 36.5),
    ("O=S(=O)(c1ccc(F)cc1)c1snnc1-c1ccccc1", "%", 28.7),
    ("Cc1ccc(NC(=O)CSc2ncnc3ccccc23)cc1S(=O)(=O)N1CCCCC1", "%", 30),
    ("Clc1cccc(CN2CCN(c3ncc(Cc4ccccc4)cn3)CC2)c1Cl", "%", 24.5),
    ("O=C1C(N2CCOCC2)=C(n2nnc3ccccc32)C(=O)c2ccccc21", "%", 34.6),
]

====

# assay_notes: StAR promoter reporter inhibitors, counter-screen for LRH-1 inverse agonist project, cell-based, luminescence, high throughput (AID 651611)
# conditions: StAR promoter luciferase reporter counterscreen, at 3.6 µM, hits give high values
Grouping by measured inhibition is done with the following cut points: low group: < 20%; middle group: ≥ 20% and < 40%; high group: ≥ 40%

# molecule, assigned_label
measured = [
    ("O=C(N/N=C(\\c1ccccc1)c1cccnc1)c1cccc(F)c1", "high group"),
    ("COc1ccc(NC(=O)C2=CC(c3ccc(OC)c(OC)c3)=NS(=O)(=O)N2C)cc1", "low group"),
    ("COc1ccc(CNC(=O)c2cccc3c(-c4cccnc4)coc23)cc1OC", "high group"),
    ("COc1ccc(/C=N/NC(=O)c2ccc(NC(=O)c3cccc([N+](=O)[O-])c3)cc2)c(OC)c1", "low group"),
    ("CCCc1nc2c(=O)n(C)c(=O)nc-2n(C)n1", "high group"),
    ("Cc1ccc(SCC(=O)Nc2ccc(N3CCOCC3)cc2)c(C)c1", "low group"),
    ("CC(=O)c1cccc(N=c2scc(-c3ccc(S(=O)(=O)N4CCOCC4)cc3)n2CCO)c1", "middle group"),
    ("Cc1ncc(CO)c(/C=N/Nc2ccc(C(F)(F)F)cn2)c1O", "high group"),
    ("Cc1ccc(C#N)c(SCc2nnc(-c3ccc(Cl)cc3)o2)n1", "middle group"),
    ("Cc1cc(C(=O)NC2CCCc3c2cnn3-c2cccc(C)c2C)n(C)n1 (configuration not stated)", "middle group"),
    ("CC[C@H](CO)Nc1nc(Nc2cccc(Cl)c2)c2ncn(C(C)C)c2n1", "middle group"),
    ("CS(=O)(=O)N1CCCC(c2nc(-c3ccc(S(=O)(=O)NCc4ccccc4)cc3)no2)C1 (configuration not stated)", "low group"),
    ("CCOc1ccc(-c2noc(CCC(=O)O)n2)cc1", "middle group"),
    ("Cc1cc(O)c(NC(=O)c2cc([N+](=O)[O-])ccc2Cl)cc1C", "middle group"),
    ("NC(=O)c1ccc(N2CCN(S(=O)(=O)c3cccs3)CC2)c([N+](=O)[O-])c1", "middle group"),
    ("CCCCC(=O)NC(c1ccc(Cl)cc1Cl)c1ccc2cccnc2c1O (configuration not stated)", "high group"),
    ("C=CCn1c(SCC(=O)Nc2ccccc2C)nc(O)cc1=O", "low group"),
    ("COc1ccc([C@@]23Oc4cc(OC)cc(OC)c4[C@]2(O)[C@H](O)[C@H](C(=O)N(C)C)[C@H]3c2ccccc2)cc1", "high group"),
    ("CCc1ccc2oc(C(=O)NCc3ccncc3)c(C)c2c1", "low group"),
    ("Nc1nc(N)nc(-c2cc(O)ccc2O)n1", "high group"),
    ("O=C(COc1ccc(S(=O)(=O)N2CCCC2)cc1Cl)Nc1ccc2c(c1)OCO2", "low group"),
    ("CC(C)(C)C(=O)/C(=C/c1ccc(Cl)cc1)n1cncn1", "high group"),
]

====

# target_system: Nuclear receptor coactivator 3 (Homo sapiens) (UniProt Q9Y6Q9)
# Sequence (Q9Y6Q9 whole entry, looked up): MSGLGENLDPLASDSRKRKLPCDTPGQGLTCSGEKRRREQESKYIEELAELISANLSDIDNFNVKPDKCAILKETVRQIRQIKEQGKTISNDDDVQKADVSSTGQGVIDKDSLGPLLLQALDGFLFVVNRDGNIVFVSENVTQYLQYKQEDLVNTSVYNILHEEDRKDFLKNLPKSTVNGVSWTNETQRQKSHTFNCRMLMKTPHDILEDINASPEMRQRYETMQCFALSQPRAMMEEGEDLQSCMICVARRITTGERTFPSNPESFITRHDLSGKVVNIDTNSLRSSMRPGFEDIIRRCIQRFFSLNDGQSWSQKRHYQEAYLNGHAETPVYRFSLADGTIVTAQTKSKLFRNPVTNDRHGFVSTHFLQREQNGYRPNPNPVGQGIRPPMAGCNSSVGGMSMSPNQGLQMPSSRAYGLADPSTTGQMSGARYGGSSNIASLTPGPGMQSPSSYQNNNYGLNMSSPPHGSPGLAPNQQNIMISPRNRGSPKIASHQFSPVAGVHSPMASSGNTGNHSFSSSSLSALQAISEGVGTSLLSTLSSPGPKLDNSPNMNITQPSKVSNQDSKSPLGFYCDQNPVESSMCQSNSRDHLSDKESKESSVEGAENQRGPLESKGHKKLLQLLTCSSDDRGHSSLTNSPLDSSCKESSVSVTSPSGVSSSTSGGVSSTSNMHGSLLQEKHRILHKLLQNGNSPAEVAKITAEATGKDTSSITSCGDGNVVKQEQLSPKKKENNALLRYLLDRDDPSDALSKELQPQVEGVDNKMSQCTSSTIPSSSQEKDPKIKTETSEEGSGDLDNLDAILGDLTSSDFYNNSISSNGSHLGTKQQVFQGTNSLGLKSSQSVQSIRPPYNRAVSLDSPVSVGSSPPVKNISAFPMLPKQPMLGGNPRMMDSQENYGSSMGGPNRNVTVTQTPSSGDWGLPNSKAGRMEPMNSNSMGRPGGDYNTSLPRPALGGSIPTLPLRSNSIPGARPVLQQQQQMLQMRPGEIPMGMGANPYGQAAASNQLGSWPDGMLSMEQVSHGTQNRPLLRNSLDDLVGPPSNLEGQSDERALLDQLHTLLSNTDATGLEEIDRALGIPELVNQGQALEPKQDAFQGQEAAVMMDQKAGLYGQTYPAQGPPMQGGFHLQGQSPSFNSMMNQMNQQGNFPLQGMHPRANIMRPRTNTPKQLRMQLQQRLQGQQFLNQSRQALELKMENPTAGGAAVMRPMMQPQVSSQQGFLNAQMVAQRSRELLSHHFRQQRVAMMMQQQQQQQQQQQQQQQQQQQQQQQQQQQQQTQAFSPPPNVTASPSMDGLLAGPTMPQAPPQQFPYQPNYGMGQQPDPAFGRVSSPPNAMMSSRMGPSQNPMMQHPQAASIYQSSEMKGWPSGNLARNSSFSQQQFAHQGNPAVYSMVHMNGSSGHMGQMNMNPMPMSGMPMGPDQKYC
# assay_notes: SRC3 coactivator transcriptional activity inhibitors, confirmation, cell-based, luminescence, quadruplicate (AID 588792);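 further: 0% = DMSO treated cells and 100% = gossypol at 36 µM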
# conditions: HEK293 GAL4-SRC3 luciferase reporter, at 3.6 µM, hits give high values
Below, each entry is listed with its recorded inhibition.

# molecule, unit_symbol, inhibition
data = [
    ("O=c1cc(CNc2cc(C(F)(F)F)cc(C(F)(F)F)c2)nc2sccn12", "%", 4.27),
    ("C=C1C(=O)OC2CC1C(OC(C)=O)CC(C)=CCCC(C)=CCCC2(C)O (stereo not given)", "%", 0.28),
    ("CCOC(=O)c1cc2sccc2n1CC(=O)N1CCc2ccccc21", "%", 43.4),
    ("O=C1N=C(N2CCN(c3ccccc3)CC2)S/C1=C\\c1cn[nH]c1-c1ccccc1", "%", 8.51),
    ("O=C(N/N=C/c1cc([N+](=O)[O-])ccc1O)c1cccc(N2CCCC2=O)c1", "%", 15.9),
    ("COc1ccc(Oc2ccc(/C=C/C(=O)c3ccc(O)cc3)cc2[N+](=O)[O-])cc1", "%", -5.49),
    ("CC(C)(Sc1cc(C(C)(C)C)c(O)c(C(C)(C)C)c1)Sc1cc(C(C)(C)C)c(O)c(C(C)(C)C)c1", "%", 15.9),
    ("O=C(NC(=S)Nc1ccc(N2CCN(C(=O)c3ccccc3)CC2)cc1)c1cccs1", "%", 25.8),
    ("Cc1ccc(Nc2nc(N)nc(CCl)n2)c(C)c1", "%", 74),
    ("c1nc2sc3c(c2c2nnnn12)CCCC3", "%", 28),
]

====

# target_system: Nuclear receptor coactivator 2 (Homo sapiens) (UniProt Q15596)
# assay_notes: SRC2 coactivator transcriptional activity inhibitors, confirmation, cell-based, luminescence, HEK293, triplicate (AID 652008);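 further: 0% = DMSO-treated cells and 100% = Gossypol at 36 µM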
# conditions: HEK293 GAL4-SRC2 luciferase reporter, at 8.9 µM, hits give high values
Mark 0.0 for inhibition values under 40%, and 1.0 for everything at or above.

# compound, assigned_label
measured = [
    ("COc1ccc(C(C(=O)NC2CCCC2)n2c(CSCCOc3ccccc3)nc3ccccc32)cc1 (stereo unspecified)", 1.0),
    ("Cc1cc(C)cc(C(=O)NC(=S)Nc2ccc(-c3cc4ccccc4oc3=O)cc2)c1", 1.0),
    ("CCC/C(C#Cc1cc(OC)cc(OC)c1)=C1/c2ccccc2C(=O)N1c1ccccc1", 0.0),
    ("COc1cccc(-c2nnc3n2N=C(C(C)(C)C)CS3)c1", 1.0),
    ("C=C1C(=O)C2=CC1CCC(=O)C1(C)CCC(OC(C)=O)C(C)(C)C1CC2O (stereo unspecified)", 1.0),
    ("CC1=C(C(=O)OCc2ccc3c(c2)OCO3)C(c2ccc(F)cc2)NC(=O)N1 (stereo unspecified)", 1.0),
    ("O=S(=O)(C/C(=C/CO)S(=O)(=O)c1ccccc1)c1ccccc1", 1.0),
    ("O=C(Nc1ccc2c(c1)OCCO2)c1[nH]c(C(F)(F)F)nc1-c1ccccc1", 1.0),
    ("O=C(CCl)N(c1ccccc1)c1ccccc1", 1.0),
    ("CC1CCc2nc(N)c(C#N)c(-c3cccn3C)c2C1 (stereo unspecified)", 0.0),
    ("CC(C)(C)c1ccc(OC(=O)Nc2ccc(O)c(C(=O)O)c2)cc1", 0.0),
]

====

# Test system: transactivating tegument protein VP16 (Human herpesvirus 1), Gal4-VP16 luciferase reporter
# assay_notes: VP16 transactivation inhibitors, counter-screen for SRC3 inhibitor project, cell-based, luminescence, high throughput (AID 588794)
# conditions: mammalian cells, VP16-driven luciferase reporter luminescence; at 3.6 µM; hits give high values
Grouping by measured inhibition is done with the following cut points: low value: < 10%; medium value: ≥ 10% and < 30%; high value: ≥ 30%

# compound, assigned_label
records = [
    ("COc1cc2c(C#N)c(N3CCOCC3)nc(N)c2c(N)n1", "low value"),
    ("COc1ccc(Cc2nnc(N/N=C/c3ccccc3O)[nH]c2=O)cc1OC", "high value"),
    ("O=C(CSc1nc2sc3c(c2c(=O)n1-c1ccccc1)CCCC3)NCc1ccco1", "low value"),
    ("CCN(CC)C(=O)c1[nH]cnc1C(=O)N[C@@H](CCCCNC(=O)OC(C)(C)C)C(=O)OC(C)(C)C", "low value"),
    ("Cc1ccc2oc(/N=C(\\N)NC(=O)C(C)(C)C)nc2c1", "high value"),
    ("COC(=O)c1ccc2nc(NC(=O)C(C)(C)C)sc2c1", "low value"),
    ("CCCC(=O)NC(c1ccccc1Cl)c1ccc2cccnc2c1O (stereo not drawn)", "high value"),
    ("COc1cc2cc(C(=O)Nc3ccc4c(c3)OCCO4)[nH]c2cc1OC", "low value"),
    ("COc1ccc(O)c(-c2[nH]ncc2C(=O)c2ccccc2)c1", "medium value"),
    ("N#C/C(=N\\Nc1cccc([N+](=O)[O-])c1)C(=O)c1ccc(Br)cc1", "medium value"),
    ("COc1ccc2nc(C)cc(Sc3nc4ccccc4s3)c2c1", "medium value"),
    ("O=C(COc1ccc(Cl)cc1)Nc1ccc(C(=O)NCc2cccnc2)cc1", "low value"),
    ("CCCCCCC(=O)NNC(=O)CC(=O)Nc1ccccc1C(=O)O", "low value"),
    ("COc1ccccc1N1CCN(Cc2cc(Br)c(O)c3ncccc23)CC1", "low value"),
    ("Clc1cccc(CNc2ccn3nc(-c4ccc(OCc5ccccc5)cc4)cc3n2)c1", "high value"),
    ("CC1(C)CC(N2CCCC2)=CC(=[N+]2CCCCCC2)C1", "high value"),
    ("CCn1ccnc1CN(C)Cc1cn[nH]c1-c1ccc(OC)c(F)c1", "medium value"),
    ("Cc1cc(NC2CCCCC2)nc(NCc2ccccc2)n1", "medium value"),
    ("CC(C)CCCCCCCCCCCCC(=O)NCC(=O)NC1C(O)C(O)C(Nc2ncnc3nc[nH]c23)OC1C(O)CO (stereo not drawn)", "high value"),
    ("COc1ccc(NC(=O)c2sc(=O)n(Cc3ccccc3C#N)c2C)cc1OC", "high value"),
    ("Cn1c(/C(C#N)=C/c2ccc(-c3ccc(S(N)(=O)=O)cc3)o2)nc2ccccc21", "medium value"),
    ("C=CCn1c(C)cc(C(=O)CN2C(=O)c3ccccc3S2(=O)=O)c1C", "high value"),
    ("COc1ccc(C(Cl)=C(C=O)c2ccc(OC)c(OC)c2)cc1OC", "low value"),
    ("N#CCc1ccc(NC(=O)c2ccc(S(=O)(=O)N3CCOCC3)cc2)cc1", "low value"),
    ("CC(C)(C)c1ccc(C2CC2C(=O)N/N=C\\c2ccc[nH]2)cc1 (stereo not drawn)", "high value"),
    ("NC(=S)NNc1ccc(Cl)c(Cl)c1", "low value"),
    ("COC(=O)c1ccc(COC(=O)c2[nH]c(C)c(C(C)=O)c2C)o1", "medium value"),
    ("Cc1cccc(OCC(=O)NCC(=O)N/N=C/c2ccc(O)cc2O)c1", "medium value"),
    ("Cc1c(P(=S)(c2ccccc2)c2ccccc2)[n+]2ccccc2n1CCc1ccccc1", "medium value"),
    ("O=C(N/N=C/c1c(O)ccc2ccccc12)c1cccnc1", "high value"),
    ("O=C(NCc1ccc(Cl)cc1)c1csc(-c2cccnc2)n1", "medium value"),
    ("CC1=C(C(=O)N(C)C)CC(CC(=O)NCCCCc2ccccc2)C(=O)N1Cc1ccc(C(C)(C)C)cc1 (stereo not drawn)", "low value"),
    ("CCCc1c(C)nc2ccccc2c1SCCC#N", "medium value"),
    ("CC(C(=O)N1c2ccccc2Sc2ccccc21)n1nnc(-c2cccs2)n1 (stereo not drawn)", "low value"),
    ("Cc1nn(-c2nc3ccccc3[nH]2)c(=O)c2ccccc12", "high value"),
    ("Cc1cccc(C)c1-c1ccc(CN2C(CC(C)C)C(=O)N(Cc3cn(CC4CCCCC4)nn3)CCS2(=O)=O)cc1 (stereo not drawn)", "medium value"),
    ("Nc1cccc2c1C(=O)N(C(=O)c1cccc(S(=O)(=O)N3CCCCCC3)c1)C2=O", "low value"),
    ("O=C(CCl)Nc1cc(SCC(O)CO)cc([N+](=O)[O-])c1 (stereo not drawn)", "high value"),
    ("Cc1[nH]n(-c2ccccc2)c(=O)c1/C=N/Nc1nncc(-c2ccccc2)n1", "high value"),
    ("COC(=O)c1c(C)oc2ccc(N(C(=O)c3ccncc3)S(=O)(=O)c3ccc(C)cc3C)cc12", "high value"),
    ("COc1ccccc1NC(=O)Nc1nnc(Cc2ccccc2F)s1", "medium value"),
    ("CCOC(=O)c1cccc(NC(=O)CSc2nc3cccnc3n2C)c1", "medium value"),
]
